Give measured Uterine Eosinophil peroxidase, Vmax for each item. Keep answers brief.
Test system: Eosinophil peroxidase
assay details: Uterine Eosinophil Peroxidase (EPO) Assay in ovariectomized rats
Format: in vivo, Sprague Dawley rats
setup conditions: 1 mg/kg PO, daily for 4 days, OVX rats
Form rule: numeric answer, no unit written next to it.

query: Which Uterine Eosinophil peroxidase, Vmax is reported for this compound? c1ccc2c(c1)-c1sc3ccccc3c1C2c1ccc(OCCN2CCCCC2)cc1 (stereo not drawn) [Example 1B]
result: 34.2

query: State the recorded Uterine Eosinophil peroxidase, Vmax for this entry: Cl.Oc1ccc2c3c(sc2c1)-c1ccccc1C3c1ccc(OCCN2CCCCC2)cc1 (stereo not drawn) [Example 6]
result: 3.7

query: Entry COc1ccc2c3c(sc2c1)-c1ccccc1C3c1ccc(OCCN2CCCCC2)cc1 (stereo not drawn) [Example 5A] : reported Uterine Eosinophil peroxidase, Vmax = ?
result: 35.4

query: For COc1ccc2c(c1)C(O)(c1ccc(OCCN3CCCCC3)cc1)c1c-2sc2cc(OC)ccc12 (stereo not drawn) [Example 3B] , what is its reported Uterine Eosinophil peroxidase, Vmax?
result: 36.6

query: State the recorded Uterine Eosinophil peroxidase, Vmax for this entry: COc1ccc2c(c1)-c1sc3cc(OC)ccc3c1C2c1ccc(OCCN2CCCCC2)cc1 (stereo not drawn) [Example 1A]
result: 30.3

query: Give its Uterine Eosinophil peroxidase, Vmax value. Item: Oc1ccc2c(c1)-c1sc3cc(O)ccc3c1C2c1ccc(OCCN2CCCCC2)cc1 (stereo not drawn) [Example 2]
result: 24.0
